test system: KAI3 (IL-2 2.5 ng/mL); test: percent inhibition of viability; higher = more inhibition; conditions: 72 h; 100 nM
Hi there, I'd appreciate the recorded percent inhibition of viability for every entry that follows.
Just the number in %, nothing appended.

Give reported percent inhibition of viability for C[C@@H]1C[C@H]2[C@@H]3CCC4=CC(=O)C=C[C@]4(C)[C@@]3(F)[C@@H](O)C[C@]2(C)[C@@]1(O)C(=O)CO [Dexamethasone] (max concentration tested 10000 nM) (KAI3 (IL-2 2.5 ng/mL))
-3.07

Tell me percent inhibition of viability of NC(=O)NO [Hydroxyurea] (max concentration tested 100000 nM) when tested on KAI3 (IL-2 2.5 ng/mL).
13.1

Provide percent inhibition of viability, recorded with KAI3 (IL-2 2.5 ng/mL), of Cc1cc2c(F)c(Oc3ncnn4cc(OC[C@@H](C)O)c(C)c34)ccc2[nH]1 [Brivanib] (max concentration tested 1000 nM)
-0.99

Give percent inhibition of viability for this entry on KAI3 (IL-2 2.5 ng/mL): NC(=O)c1cccc(-c2cccc(OC(=O)NC3CCCCC3)c2)c1 [URB597] (max concentration tested 1000 nM)
-2.84

Identify measured percent inhibition of viability obtained with KAI3 (IL-2 2.5 ng/mL) for COC(=O)N[C@@H](C)CNc1nccc(-c2cn(C(C)C)nc2-c2cc(Cl)cc(NS(C)(=O)=O)c2F)n1 [Encorafenib] (max concentration tested 1000 nM) .
-5.19

Give percent inhibition of viability for this entry on KAI3 (IL-2 2.5 ng/mL): Cc1ccc(Nc2nccc(N(C)c3ccc4c(C)n(C)nc4c3)n2)cc1S(N)(=O)=O [Pazopanib] (max concentration tested 10000 nM)
1.76

###

tested on: normal primary NK cells, pool 1 (3 donors) (IL-2 2.5 ng/mL); assay: percent inhibition of viability; higher = more inhibition; conditions: 72 h; 250 nM
Record form. Attribute: percent inhibition of viability. Fill in for each entry.
The reply should contain only the number, in %.

Fill in reported percent inhibition of viability for this entry: CC(C)Cn1cnc2c(N)nc3ccccc3c21 [Imiquimod] (max concentration tested 2500 nM)
-9.14

Return percent inhibition of viability for the following molecule: C[C@@H]1CN(CC(=O)Nc2ccc3c(c2)Cc2cccc(-c4cc(=O)cc(N5CCOCC5)o4)c2S3)C[C@H](C)O1 (max concentration tested 25000 nM)
-7.4

# return recorded percent inhibition of viability for input Cc1cc([C@@H](C)Nc2ccccc2C(=O)O)c2nc(N3CCOCC3)cc(=O)n2c1 [AZD-6482] (max concentration tested 2500 nM)
2.68

Determine its reported percent inhibition of viability: CN[C@@H](C)C(=O)N[C@H](C(=O)N1CCC[C@H]1c1nc(C(=O)c2ccc(F)cc2)cs1)C1CCCCC1 [LCL161] (max concentration tested 25000 nM)
25.8

###

test system: NK-92 (IL-2 2.5 ng/mL); assay: drug sensitivity score (DSS) (DSS units); higher = more sensitive; extreme values may be limits of the assay; conditions: 72 h
testReadout: drug sensitivity score
The response must contain the number and no unit.

Consider the compound c1ccc(Cn2c(-c3ccc(OC[C@H](C4CCNCC4)n4c(-c5ccccc5)nc5ccccc54)cc3)nc3ccccc32)cc1 [deltarasin] (max concentration tested 10000 nM) . State its measured drug sensitivity score.
8.37

Specify reported drug sensitivity score for the compound shown: CC(C)c1c(C(=O)Nc2ccccc2)c(-c2ccccc2)c(-c2ccc(F)cc2)n1CC[C@@H](O)C[C@@H](O)CC(=O)O [Atorvastatin] (max concentration tested 10000 nM)
2.7

State its drug sensitivity score for this compound: CC1(C)CCC(c2ccc(Cl)cc2)=C(CN2CCN(c3ccc(C(=O)NS(=O)(=O)c4ccc(N[C@H](CCN5CCOCC5)CSc5ccccc5)c(S(=O)(=O)C(F)(F)F)c4)cc3)CC2)C1 [Navitoclax] (max concentration tested 10000 nM)
18.6

Provide measured drug sensitivity score value, entry: Cn1cc(C2=C(c3cn(C4CCN(Cc5ccccn5)CC4)c4ccccc34)C(=O)NC2=O)c2ccccc21 [Enzastaurin] (max concentration tested 10000 nM)
0.06

Return drug sensitivity score (reported value) for this compound: COc1ccc2c(OCc3nnc4ccc(-c5ccccc5)nn34)ccnc2c1 [AMG-208] (max concentration tested 2500 nM)
0.61

Quickly give me recorded drug sensitivity score for NC(=S)N/N=C/c1ncccc1N [Triapine] (max concentration tested 10000 nM)
12.1

###

system: normal primary NK cells, pool 3 (3 donors) (IL-2 2.5 ng/mL); test: percent inhibition of viability; higher = more inhibition; conditions: 72 h; 10 nM
testReadout: percent inhibition of viability (%)
Kindly provide the numeric value in % only, without the unit symbol.

Identify the reported percent inhibition of viability for the following entry. CC/C(=C(\c1ccccc1)c1ccc(OCCN(C)C)cc1)c1ccccc1 [Tamoxifen] (max concentration tested 10000 nM)
0.09

Given the compound CCC1(c2ccc(N)cc2)CCC(=O)NC1=O (configuration not stated) [Aminoglutethimide] (max concentration tested 10000 nM) , write its reported percent inhibition of viability.
-2.09

Supply recorded percent inhibition of viability for CC[C@H](C)C(=O)O[C@H]1C[C@@H](C)C=C2C=C[C@H](C)[C@H](CC[C@@H]3C[C@@H](O)CC(=O)O3)[C@H]21 [Lovastatin] (max concentration tested 10000 nM) here.
-10.5

Please indicate percent inhibition of viability recorded for CNC(=O)c1ccccc1Sc1ccc2c(/C=C/c3ccccn3)n[nH]c2c1 [Axitinib] (max concentration tested 10000 nM)
6.8

Identify percent inhibition of viability associated with the compound CC1(C)CCC(c2ccc(Cl)cc2)=C(CN2CCN(c3ccc(C(=O)NS(=O)(=O)c4ccc(N[C@H](CCN5CCOCC5)CSc5ccccc5)c(S(=O)(=O)C(F)(F)F)c4)cc3)CC2)C1 [Navitoclax] (max concentration tested 10000 nM)
-12.2

Return the recorded percent inhibition of viability value; entry: CC/C(=C(\c1ccc(O)cc1)c1ccc(OCCN(C)C)cc1)c1ccccc1 [4-hydroxytamoxifen] (max concentration tested 10000 nM)
-2.52

Supply percent inhibition of viability value. Item: Cc1ccc(-n2nc(C(C)(C)C)cc2NC(=O)Nc2ccc(OCCN3CCOCC3)c3ccccc23)cc1 [Doramapimod] (max concentration tested 10000 nM)
-1.56

Tell me measured percent inhibition of viability for CC(C)NC[C@@H](C(=O)N1CCN(c2ncnc3c2[C@H](C)C[C@H]3O)CC1)c1ccc(Cl)cc1 [Ipatasertib] (max concentration tested 10000 nM) please.
1.78

Consider the compound CC(C)c1c(C(=O)Nc2ccccc2)c(-c2ccccc2)c(-c2ccc(F)cc2)n1CC[C@@H](O)C[C@@H](O)CC(=O)O [Atorvastatin] (max concentration tested 10000 nM) . State its measured percent inhibition of viability.
-6.08

Report measured percent inhibition of viability; entry is Cn1c(Nc2ccc(C(F)(F)F)cc2)nc2cc(Oc3ccnc(-c4ncc(C(F)(F)F)[nH]4)c3)ccc21 [RAF265] (max concentration tested 1000 nM)
6.16

In one line, give reported percent inhibition of viability of the entry COc1cccc2c1C(=O)c1c(O)c3c(c(O)c1C2=O)C[C@@](O)(/C(CO)=N/NC(=O)CCCCCN1C(=O)C=CC1=O)C[C@@H]3O[C@H]1C[C@H](N)[C@H](O)[C@H](C)O1 [Aldoxorubicin] (max concentration tested 1000 nM) .
0.28

Give a short answer stating reported percent inhibition of viability for N#Cc1ccc2[nH]c(O)c(-c3ccc(CN4CCOCC4)cn3)c2c1 [AZD-1080] (max concentration tested 10000 nM) .
4.2

Please report percent inhibition of viability for the following compound: Cc1c(N)nc([C@H](CC(N)=O)NC[C@H](N)C(N)=O)nc1C(=O)N[C@H](C(=O)N[C@H](C)[C@@H](O)[C@H](C)C(=O)N[C@H](C(=O)NCCc1nc(-c2nc(C(=O)NCCC[S+](C)C)cs2)cs1)[C@@H](C)O)[C@@H](OC1OC(CO)C(O)C(O)C1OC1OC(CO)C(O)C(OC(N)=O)C1O)c1cnc[nH]1 (some centres not stated) [Bleomycin] (max concentration tested 10000 nM)
-1.71

Assign percent inhibition of viability to the following record: C[C@@H]1C[C@H]2[C@@H]3CCC4=CC(=O)C=C[C@]4(C)[C@@]3(F)[C@@H](O)C[C@]2(C)[C@@]1(O)C(=O)CO [Dexamethasone] (max concentration tested 10000 nM)
19.5

Note percent inhibition of viability for the compound shown: Cc1cc2c(F)c(Oc3ncnn4cc(OC[C@@H](C)O)c(C)c34)ccc2[nH]1 [Brivanib] (max concentration tested 1000 nM)
-12.4

Using known records, supply percent inhibition of viability for C=CCn1c(=O)c2cnc(Nc3ccc(N4CCN(C)CC4)cc3)nc2n1-c1cccc(C(C)(C)O)n1 [MK1775] (max concentration tested 10000 nM)
-4.31

Give the reported percent inhibition of viability for this compound. Cn1cc(C2=C(c3cn(C4CCN(Cc5ccccn5)CC4)c4ccccc34)C(=O)NC2=O)c2ccccc21 [Enzastaurin] (max concentration tested 10000 nM)
-5.85

Give the reported percent inhibition of viability for this compound. CC(C)Oc1cc(Nc2nc(N[C@@H](C)c3ccc(F)cn3)ncc2Cl)n[nH]1 [AZ-23] (max concentration tested 1000 nM)
-13.7

Report percent inhibition of viability, nothing else, for this compound: CN(N=O)C(=O)N[C@@H](C=O)[C@@H](O)[C@H](O)[C@H](O)CO [Streptozocin] (max concentration tested 10000 nM)
-5.88

Please give the documented percent inhibition of viability of NS(=O)(=O)OC[C@@H]1C[C@@H](n2ccc3c(N[C@H]4CCc5ccccc54)ncnc32)C[C@@H]1O [Pevonedistat] (max concentration tested 10000 nM)
5

Tell me measured percent inhibition of viability for CN[C@@H](C)C(=O)N[C@H]1CN(C(=O)CC(C)C)CC[C@H]2CC[C@@H](C(=O)NC(c3ccccc3)c3ccccc3)N2C1=O [AT-406] (max concentration tested 10000 nM) please.
-10.2

Please report the measured percent inhibition of viability for Nc1nc(Nc2ccc3c(c2)CC[C@@H](N2CCCC2)CC3)nn1-c1cc2c(nn1)-c1ccccc1CCC2 [BGB324] (max concentration tested 10000 nM)
-10.5
